Tested on: MrdGDH
Test: Maltose/glucose response current ratio, unimmobilized MrdGDH with mPMS (chronoamperometry)
Format: biochemical, Mucor RD056860
Details: 5 mM additive, mPMS
Method: 10 μL of 12 mg/ml MpGDH purified preparation, 10 μL of 15 mM each glucose analog, and 10 μL of 20 mM potassium phosphate buffer were mixed and allowed to stand for 2 hours or longer. […] A glucose solution was added instead of the maltose solution and the response current value of glucose was measured. The value calculated by dividing the response current value of maltose by the response current value of glucose was expressed as maltose/glucose (%). […]
Provide the recorded Maltose/Glucose (%) for the entries that follow.
Form entry: value (%) — number only.

Any idea what Maltose/Glucose (%) came out for `OC[C@@H](O)[C@@H](O)[C@H](O)[C@@H](O)CO` on MrdGDH?
23

Any idea what Maltose/Glucose (%) came out for `OC[C@@H](O)[C@H](O)[C@@H](O)[C@H](O)CO` on MrdGDH?
21.6

Any idea what Maltose/Glucose (%) came out for `OC[C@@H](O)[C@@H](O)[C@@H](O)CO` on MrdGDH?
22

Any idea what Maltose/Glucose (%) came out for `O=C[C@@H](O)[C@@H](O)[C@H](O)[C@@H](O)CO` on MrdGDH?
28

Any idea what Maltose/Glucose (%) came out for `OC[C@H]1O[C@H](O[C@H]2O[C@H](CO)[C@@H](O)[C@H](O)[C@H]2O)[C@H](O)[C@@H](O)[C@@H]1O` on MrdGDH?
22
